These entries and their values trace back to paper PMC10397247.

Molecular target: T1, 4H717-AA
T1 chain: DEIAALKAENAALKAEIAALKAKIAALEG
Assay: two-hybrid library CCmax;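 note: natural log of median RNA to DNA barcode read ratio; higher means stronger binding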
Conditions: mean of both orientations
RESULT TYPE: interaction score
API note: the answer field is a bare number with no unit suffix.

interaction score measured on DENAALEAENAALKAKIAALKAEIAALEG [4H1257-AA] = 0.282

interaction score measured on DKNAALEAKIAALEAENAALKAEIAALKG [4H3354-AA] = -1.69

interaction score measured on DEIAALKAEIAALEAKNAALEAKIAALKG [4H566-AA] = -0.483

interaction score measured on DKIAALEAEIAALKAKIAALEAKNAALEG [4H2151-AA] = -1.61
